Assay: Oral bioavailability in rat at 10 mg/kg
Type: ADME, organism-based
Details: in vivo
Measured bioavailability, listed per entry.
Supply the numeric figure in %, leaving out any unit text.

Which bioavailability value belongs to COc1cc(-c2cccc(OC(F)F)c2)c(F)cc1-n1c(=O)ccc2cc(S(=O)(=O)Nc3ccon3)ccc21 ?
30

Which bioavailability value belongs to COc1cc(-c2cccc(F)c2)c(F)cc1-n1c(=O)ccc2cc(S(=O)(=O)Nc3ccon3)ccc21 (atropisomer P) ?
66

Which bioavailability value belongs to COc1cc(-c2cccc(C(F)(F)F)c2)ccc1-n1c(=O)ccc2cc(S(=O)(=O)Nc3ncccn3)ccc21 ?
83

Which bioavailability value belongs to COc1cc(-c2cc(OC)c(-n3c(=O)ccc4cc(S(=O)(=O)Nc5ncccn5)ccc43)cc2F)ccc1Cl ?
55

Which bioavailability value belongs to COc1cc(-c2ccc(F)c(C)c2)c(F)cc1-n1c(=O)ccc2cc(S(=O)(=O)Nc3ccon3)ccc21 ?
67
